# Test system: NCM-460 cell line
# Assay Remarks: cells
# Setup Conditions: Homo sapiens, NCM460, 24 h, NCM-460, MTT, 24 h
Measurement Name: IC50 (µM)

Compound	Measurement Name	Endpoint Unit	Observed Measurement
O=C/C=C/c1ccccc1	IC50	µM	218

====

# Assay Remarks: in vitro
# Format: cell-based, human
# Setup Conditions: human; Caco2, 72 h; eugenol 800 µM (E800), cinnamaldehyde 75 µM (A75); read-out: Q2-LL cells (lower left, viable, AnnexinV −/PI −)

Compound	viability at 72 h (%)
C=CCc1ccc(O)c(OC)c1	67.5

====

# Test system: SW-620 cell line
# Assay Remarks: MTT cell viability assay, SW-620
# Setup Conditions: SW-620, MTT, 72 h
# Method: Briefly, cells were firstly seeded, in triplicate, into 96-well culture plates at 10^4 cells/well. […] The final concentration of ethanol in the cell medium was kept lower than 0.1%. Ethanol 0.1% was added to the control (untreated) cells. The cytotoxicity of the essential oil single components was evaluated by MTT assay on 96-well plates. […] Absorbance was measured at 595 nm. Cell growth inhibition rate was calculated as a percentage of treated cells on control ones.
# key: entry, value: IC50
Measurement Name: IC50 (µM)

Compound	System	Observed Measurement
C=CCc1ccc(O)c(OC)c1	SW-620 cell line	866
O=C/C=C/c1ccccc1	SW-620 cell line	92.1
